All figures here come from patent US20250027068.

Target: pooled human IgG (human IgG1,2,3 and 4)
Recorded Enzyme Activity Endpoint Assay: IgG values for a group of proteins are listed next.
I only need the number, in ng/µL, no unit after it.

Q: If you can, please state the reported Enzyme Activity Endpoint Assay: IgG value of PRT-103 (protein) MANQEIRYSEVTPYHVTSVWTKGVTPPAKFTQGEDVFHAPYVANQGWYDITKTFNGKDDLLCGAATAGNMLHWWFDQNKEKIEAYLKKHPDKQKIMFGDQELLDVRKVINTKGSQTNSELFNYFRDKAFPGLSARRIGVMPDLVLDMFINGYYLNVYKTQTTDVNRTYQEKDRRGGIFDAVFTRGDQSKLLTSRHDFKEKNLKEISDLIKKELTEGKALGLSHTYANVRINHVINLWGADFDSNGNLKAIYVTDSDSNASIGMKKYFVGVNSAGKVAISAKEIKEDNIGAQVLGLFTLSTGQDSWNQTN .
Result: 0

Q: If you can, please state the reported Enzyme Activity Endpoint Assay: IgG value of PRT-300 (protein) MVTSVWTKGVTPPTDFIKGEDVFHAPYKAGQGWYDITKTFNGKDDLLCGAATAGNMLHWWFDQNKEYIEAYLKKHPEKQKIMFGDQELLDVRKAINTKGSQKNSELFNYFRDKAFPNLSARRLGVMPDLVLDMFINGYYLNVTKTQTTDVNRTYQEKDKRGGIFDAVFTRGDQSKLLTSRHDFKEKGLKEISDLIKQELTEGKALGLSHTYANVRLNHVINLWGADFDSDGNLKAIYVTDSDSNASIGMKKYFVGVNSSGKVAISAKEIKEDNIGAQVLGLFTLSTGQDIWNQTN .
Result: 276
